# Tested on: Plasmodium berghei
# ASSAY METHOD TEXT: Antimalarial activity against Plasmodium berghei infected in mouse assessed as change in mean survival time at 2.5 mg/kg (reference value: 6.2 +/- 0.5 days)
# Assay type: functional
OUTCOME MEASURE: log10 of MST (log10 of the value in days)

[
  {
    "COMPOUND": "CCCCN(CCCC)CCC(O)c1cc2c(Cl)cc(Cl)cc2c2cc(C(F)(F)F)ccc12 (stereo in doubt; (+)-8) [HALOFANTRINE]",
    "EXPERIMENTAL TARGET": "Plasmodium berghei",
    "OUTCOME MEASURE": "log10 of MST",
    "OBSERVED RESULT": 0.49
  },
  {
    "COMPOUND": "Nc1nc(N)c2c(n1)CCC(S(=O)(=O)c1ccc3ccccc3c1)C2 (single isomer, unassigned; (-))",
    "EXPERIMENTAL TARGET": "Plasmodium berghei",
    "OUTCOME MEASURE": "log10 of MST",
    "OBSERVED RESULT": 0.49
  },
  {
    "COMPOUND": "CCCCN(CCCC)CCC(O)c1cc2c(Cl)cc(Cl)cc2c2cc(C(F)(F)F)ccc12 (stereo in doubt; (-)-8) [HALOFANTRINE]",
    "EXPERIMENTAL TARGET": "Plasmodium berghei",
    "OUTCOME MEASURE": "log10 of MST",
    "OBSERVED RESULT": -0.52
  },
  {
    "COMPOUND": "CCCCN(CCCC)CC(O)c1cc(-c2ccc(Cl)c(Cl)c2)nc2c(Cl)cc(Cl)cc12 (single isomer, unassigned; (+))",
    "EXPERIMENTAL TARGET": "Plasmodium berghei",
    "OUTCOME MEASURE": "log10 of MST",
    "OBSERVED RESULT": -0.30
  },
  {
    "COMPOUND": "Nc1nc(N)c2c(n1)CCC(S(=O)(=O)c1ccc3ccccc3c1)C2 (racemic)",
    "EXPERIMENTAL TARGET": "Plasmodium berghei",
    "OUTCOME MEASURE": "log10 of MST",
    "OBSERVED RESULT": 0.88
  },
  {
    "COMPOUND": "CCCCN(CCCC)CC(O)c1cc(-c2ccc(Cl)c(Cl)c2)nc2c(Cl)cc(Cl)cc12 (racemic)",
    "EXPERIMENTAL TARGET": "Plasmodium berghei",
    "OUTCOME MEASURE": "log10 of MST",
    "OBSERVED RESULT": 0.61
  }
]
